TEST TARGET: RNR (RNR1:RNR2) (Homo sapiens (Human), UniProt P23921+P31350)
Sequence (P23921 whole entry): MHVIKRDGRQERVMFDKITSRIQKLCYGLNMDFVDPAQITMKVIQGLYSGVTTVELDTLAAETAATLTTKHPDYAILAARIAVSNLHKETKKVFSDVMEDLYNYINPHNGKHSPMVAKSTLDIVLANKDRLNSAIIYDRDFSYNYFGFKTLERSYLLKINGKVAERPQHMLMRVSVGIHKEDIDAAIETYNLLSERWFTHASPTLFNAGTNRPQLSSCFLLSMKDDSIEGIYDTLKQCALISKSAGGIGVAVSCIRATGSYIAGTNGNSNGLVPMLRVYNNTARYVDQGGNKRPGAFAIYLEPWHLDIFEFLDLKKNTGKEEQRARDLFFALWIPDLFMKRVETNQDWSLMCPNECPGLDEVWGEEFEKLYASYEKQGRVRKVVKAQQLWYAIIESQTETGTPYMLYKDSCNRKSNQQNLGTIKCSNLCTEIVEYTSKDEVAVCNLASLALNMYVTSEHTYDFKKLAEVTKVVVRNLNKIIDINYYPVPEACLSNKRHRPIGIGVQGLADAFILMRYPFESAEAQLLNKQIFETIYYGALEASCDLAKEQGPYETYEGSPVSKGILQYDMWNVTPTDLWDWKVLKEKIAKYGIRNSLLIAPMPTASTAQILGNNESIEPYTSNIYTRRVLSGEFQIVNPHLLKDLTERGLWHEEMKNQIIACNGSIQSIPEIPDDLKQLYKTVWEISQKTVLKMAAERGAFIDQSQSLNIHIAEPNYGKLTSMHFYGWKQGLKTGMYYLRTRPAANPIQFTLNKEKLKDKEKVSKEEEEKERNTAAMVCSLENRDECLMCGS
Sequence (P31350 whole entry): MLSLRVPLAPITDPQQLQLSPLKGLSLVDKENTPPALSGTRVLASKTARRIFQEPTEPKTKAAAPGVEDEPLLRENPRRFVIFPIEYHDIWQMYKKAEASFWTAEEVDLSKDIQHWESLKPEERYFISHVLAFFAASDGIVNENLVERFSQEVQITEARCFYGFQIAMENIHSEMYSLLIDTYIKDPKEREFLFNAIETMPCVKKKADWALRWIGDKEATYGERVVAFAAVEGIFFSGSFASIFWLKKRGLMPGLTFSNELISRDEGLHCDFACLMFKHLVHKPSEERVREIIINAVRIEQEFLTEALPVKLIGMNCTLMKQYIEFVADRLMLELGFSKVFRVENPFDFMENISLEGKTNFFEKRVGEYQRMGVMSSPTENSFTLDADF
ASSAY PROCEDURE: RNR enzyme activity, rapid-fire mass spectrometry (RFMS) assay
Format: biochemical
ASSAY CONTEXT: [RNR] 50 nM, 1:1 RNR1:RNR2, [CDP] 5 μM, [ATP] 1 mM, 37° C., 45 min
Procedure: A rapid-fire mass spectrometry (RFMS) assay was used to assess RNR enzyme activity using a 384 well plate and a robotic platform. The plate layout included two validated reference compounds (Triapine (3-AP) and Hydroxyurea (HU)): • A dose response in duplicate; top concentration: 5 μM (3-AP) and 250 μM (HU), semi-log • dilutions. • Spike wells in triplicate randomly spotted at four concentrations: • 250 μM, 100 μM, 30 μM and 2 μM for HU • 5 μM, 2 μM, 0.6 μM and 0.04 μM for 3-AP […]
pIC50: −log10 of the molar value.
MEASUREMENT KIND: pIC50

In [3]: df
Out[3]:
                                   molecule  endpoint_result
0  Cc1ccc(F)c([C@@H](C)[C@H](NS(=O)(=O)c2ccc(Cl)cc2CC(N)=O)c2nn[nH]n2)c1C     6.00 to 7.00
1  Cc1ccc(Cl)c(S(=O)(=O)N[C@H](c2nn[nH]n2)[C@H](C)c2c(F)ccc(C)c2C)c1     5.30 to 6.00
2  Cc1cc(Cl)ccc1S(=O)(=O)N[C@H](c1nn[nH]n1)[C@H](C)c1c(F)ccc(C)c1C     6.00 to 7.00
3  [2H]C([2H])([2H])Oc1cc(Cl)ccc1S(=O)(=O)N[C@H](c1nn[nH]n1)[C@H](C)c1c(F)ccc(C)c1C           ≥ 7.00
4  Cc1ccc(F)c([C@@H](C)[C@H](NS(=O)(=O)c2ccc(Cl)cc2C2CC2)c2nn[nH]n2)c1C     6.00 to 7.00
5  Cc1ccc(F)c([C@@H](C)[C@H](NS(=O)(=O)c2ccc(Cl)c(C(C)(O)C(=O)N(C)C)c2)c2nn[nH]n2)c1C (stereo partly shown)     6.00 to 7.00

Please give pIC50 for each item listed below.
1. Cc1ccc(F)c([C@@H](C)[C@H](NS(=O)(=O)c2ccc(Cl)cc2N(C)C)c2nn[nH]n2)c1C (racemic)
2. Cc1ccc(F)c([C@@H](C)[C@H](NS(=O)(=O)c2cc(Cl)ccc2Cl)c2nn[nH]n2)c1C
3. Cc1ccc(F)c([C@@H](C)[C@H](NS(=O)(=O)c2ccc(F)c(C(N)=O)c2)c2nn[nH]n2)c1C
4. Cc1ccc(F)c([C@@H](C)[C@H](NS(=O)(=O)c2ccc(Cl)c3c2OCCC3)c2nn[nH]n2)c1C
5. Cc1ccc(F)c([C@@H](C)[C@H](NS(=O)(=O)c2ccc(Cl)cc2)c2nn[nH]n2)c1C
6. COc1c(S(=O)(=O)N[C@H](c2nn[nH]n2)[C@H](C)c2c(F)ccc(C)c2C)ccc(Cl)c1[C@H](C)O (racemic)
7. Cc1ccc(F)c([C@@H](C)[C@H](NS(=O)(=O)c2ccc(Cl)cc2OC(F)F)c2nn[nH]n2)c1C
8. Cc1ccc(F)c([C@@H](C)[C@H](NS(=O)(=O)c2cccc3[nH]c(=O)ccc23)c2nn[nH]n2)c1C

Result:
["≥ 7.00", "4.52 to 5.30", "5.30 to 6.00", "≥ 7.00", "6.00 to 7.00", "≥ 7.00", "≥ 7.00", "6.00 to 7.00"]
